Test system: U-251
Test: NCI tumour cell line growth inhibition, 48 h
The source made the active and inactive calls. No stated cut-off is given here; in the data, active = GI50 up to about 1.1 µM and inactive = higher.
Field: GI50. Provide a value for each of the compounds that follow.

### Prompt Enter reported GI50 observed with U-251 for `O=C1C(Cl)=C(Cl)C(=O)C(CCNc2nccs2)=C1Cl`
### Response 36.3 µM (inactive)

### Prompt Now this one: `CC(C)=CCC/C(C)=C/CC/C(C)=C/CC/C(C)=C/CC/C(C)=C/CC/C(C)=C/CC/C(C)=C/CC/C(C)=C/CC/C(C)=C/CO`
### Response > 100 µM (inactive)

### Prompt Now this one: `N#Cc1c(Cl)cccc1Oc1ccc(S(=O)(=O)N/C(=N\O)Nc2ccc(Cl)cc2)cc1`
### Response 17 µM (inactive)

### Prompt Now this one: `O=C(/C=C/c1ccc([N+](=O)[O-])cc1)c1nc2ccccc2[nH]1`
### Response 13.2 µM (inactive)

### Prompt Now this one: N#CC(C(=O)/C(=N/NC(=O)c1ccccc1O)C(C#N)c1ccc(Cl)cc1)c1ccc(Cl)cc1 (configuration not stated)
### Response 10.6 µM (inactive)

### Prompt Now this one: `O=C(O)[C@@H]1C[C@@H](O)CN1C(=O)OCc1ccccc1`
### Response > 100 µM (inactive)

### Prompt Now this one: `COc1ccc(/C=C/C(=O)c2sc(-n3nc(-c4ccccc4)cc3-c3ccccc3)nc2C)cc1OC`
### Response 28.8 µM (inactive)
